Catalogue of Lipophilic Efficiency (logP) readings, one per entry.
Target: GPR139 (Homo sapiens, UniProt Q6DWJ6)
Sequence (Q6DWJ6 1-353): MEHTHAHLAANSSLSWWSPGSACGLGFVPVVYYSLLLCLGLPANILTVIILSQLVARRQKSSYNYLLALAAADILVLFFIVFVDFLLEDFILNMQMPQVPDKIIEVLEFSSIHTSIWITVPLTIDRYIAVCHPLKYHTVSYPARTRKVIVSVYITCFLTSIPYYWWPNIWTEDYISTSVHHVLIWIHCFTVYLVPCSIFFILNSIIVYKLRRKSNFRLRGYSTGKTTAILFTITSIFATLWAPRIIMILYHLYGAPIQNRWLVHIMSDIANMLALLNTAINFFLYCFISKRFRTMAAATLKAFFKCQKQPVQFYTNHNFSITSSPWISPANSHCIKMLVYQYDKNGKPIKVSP
Experiment: GPR139 Agonist titration / agonist counterscreen assay (calcium detection, HEK-GPR139 cells)
Type: cell-based
Design: expressed in transfected cells; host or cells: HEK Aequorin cells, Maxcyte transient transfection
Conditions: GPR139 Agonist Activity; based on logP

Observe how each entry below is paired with its result.
INSERT INTO assay_data (compound, value_kind, recorded_measurement) VALUES
  ('O=C(CN1CCN(Cc2ccc(F)cc2Cl)C1=O)NCc1ccccc1Cl [SR-01000125622]', 'Lipophilic Efficiency (logP)', 3.63),
  ('COc1ccc(C2(C)NC(=O)N(CC(=O)Nc3cc(C)ccc3C)C2=O)cc1 (centres unmarked) [SR-01000918716]', 'Lipophilic Efficiency (logP)', 5.74);

Query string: Give the reported value of Lipophilic Efficiency (logP) for this record: O=C(c1ccccc1)C1CCCCC1S(=O)(=O)O (centres unmarked) [SR-01000197834]
Result string: 4.61

Query string: Give the reported value of Lipophilic Efficiency (logP) for this record: O=C(Cn1ccc([N+](=O)[O-])n1)NCCc1ccc(Cl)cc1 [SR-01000299915]
Result string: 5.86

Query string: Give the reported value of Lipophilic Efficiency (logP) for this record: Cc1cc(Cl)ccc1OC(C)C(=O)NNC(=O)c1ccccc1 (centres unmarked) [SR-01000013313]
Result string: 4.44
